- Measured Target: T1, CXCR4 (human), P61073
- T1 chain: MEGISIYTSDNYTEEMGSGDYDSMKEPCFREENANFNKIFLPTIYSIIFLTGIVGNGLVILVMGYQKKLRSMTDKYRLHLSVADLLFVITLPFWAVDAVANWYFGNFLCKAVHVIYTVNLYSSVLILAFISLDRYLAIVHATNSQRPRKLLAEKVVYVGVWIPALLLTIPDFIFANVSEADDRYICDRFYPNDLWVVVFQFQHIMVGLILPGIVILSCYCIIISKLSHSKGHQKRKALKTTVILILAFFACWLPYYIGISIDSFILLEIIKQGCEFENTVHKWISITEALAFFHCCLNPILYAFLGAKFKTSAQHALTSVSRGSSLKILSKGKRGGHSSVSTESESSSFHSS
- Assay Name: biotin-labeled peptide at 10 µM on HOS transformants, 125I-streptavidin
No end group written: not given here.
Recorded Metric: Kd

Req: Input CLDPKQKWIQC (not fully specified (N-terminus); cysteine pairing not given here) [N-terminal biotin conjugate of the sequence n'-…-c'] , output reported Kd.
Resp: > 10 µM
